Tested on: mouse P-gp
test-summary: Transcellular P-gp assay (mouse P-gp)
Format: in vitro ADME
run-parameters: LLC-PK1, first value of cell, transfected LLC-PK cells, read-out: Apical Efflux Ratio
measured-property: efflux ratio

Cn1c(-c2ccc3c(c2O)CCO3)nnc(N[C@@H]2CCCN(CCO)C2)c1=O [Example 1] | 8.6

a = Cn1c(-c2ccc3c(c2O)CCC3)nnc(N[C@@H]2CCCN(CCO)C2)c1=O [Example 2]
b = CCN1CCC[C@@H](Nc2nnc(-c3ccc4c(c3O)CCO4)n(C)c2=O)C1 [RE-A, reference compound]
Higher efflux ratio between a and b ? Mark your selection by writing its label.
a

###

target-desc: human P-gp (Homo sapiens, UniProt P08183)
Construct: expressed in transfected cells; host or cells: LLC-PKT (so in the source) porcine kidney epithelial cells
Sequence (P08183 whole entry): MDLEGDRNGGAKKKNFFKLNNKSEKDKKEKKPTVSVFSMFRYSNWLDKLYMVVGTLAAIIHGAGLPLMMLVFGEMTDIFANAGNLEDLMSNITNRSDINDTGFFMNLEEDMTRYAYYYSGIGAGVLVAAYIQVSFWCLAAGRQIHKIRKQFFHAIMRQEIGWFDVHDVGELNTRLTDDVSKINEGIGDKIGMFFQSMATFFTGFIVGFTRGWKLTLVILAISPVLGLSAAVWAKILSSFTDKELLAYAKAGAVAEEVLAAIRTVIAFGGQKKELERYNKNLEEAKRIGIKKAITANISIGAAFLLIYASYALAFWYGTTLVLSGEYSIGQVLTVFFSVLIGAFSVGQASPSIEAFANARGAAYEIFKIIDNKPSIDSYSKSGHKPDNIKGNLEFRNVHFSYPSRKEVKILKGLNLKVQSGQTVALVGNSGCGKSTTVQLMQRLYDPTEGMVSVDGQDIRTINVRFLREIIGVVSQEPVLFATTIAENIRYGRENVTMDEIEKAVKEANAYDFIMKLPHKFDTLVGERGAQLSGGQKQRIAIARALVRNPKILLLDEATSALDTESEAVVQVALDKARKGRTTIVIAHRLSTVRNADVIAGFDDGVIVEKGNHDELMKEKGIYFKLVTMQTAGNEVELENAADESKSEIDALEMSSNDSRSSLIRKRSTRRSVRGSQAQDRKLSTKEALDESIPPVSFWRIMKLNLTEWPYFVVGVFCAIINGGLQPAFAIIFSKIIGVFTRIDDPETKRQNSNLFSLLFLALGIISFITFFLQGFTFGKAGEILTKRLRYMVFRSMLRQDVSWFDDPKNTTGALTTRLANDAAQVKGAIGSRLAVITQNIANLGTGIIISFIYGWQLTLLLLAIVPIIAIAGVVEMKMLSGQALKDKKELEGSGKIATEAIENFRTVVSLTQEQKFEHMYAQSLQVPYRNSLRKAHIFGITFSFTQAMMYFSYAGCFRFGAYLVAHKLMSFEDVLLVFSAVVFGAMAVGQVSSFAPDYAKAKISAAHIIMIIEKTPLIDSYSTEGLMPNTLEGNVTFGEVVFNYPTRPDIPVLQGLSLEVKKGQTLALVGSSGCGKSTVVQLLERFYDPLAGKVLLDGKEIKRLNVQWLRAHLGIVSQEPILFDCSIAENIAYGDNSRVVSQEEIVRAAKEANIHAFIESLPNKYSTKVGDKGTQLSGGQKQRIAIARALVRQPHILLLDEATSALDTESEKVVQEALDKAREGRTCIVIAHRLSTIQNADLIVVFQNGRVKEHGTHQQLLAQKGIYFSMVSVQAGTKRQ
test-summary: Transcellular P-gp assay (human P-gp)
Format: in vitro ADME
run-parameters: LLC-PK1, second value of cell, transfected LLC-PK cells, read-out: Permeability
measured-property: Papp (×10⁻⁶ cm/s)

Cn1c(-c2ccc3c(c2O)CCC3)nnc(N[C@@H]2CCCN(CCO)C2)c1=O [Example 2] | 19

P = CCN1CCC[C@@H](Nc2nnc(-c3ccc4c(c3O)CCO4)n(C)c2=O)C1 [RE-A, reference compound]
Q = Cn1c(-c2ccc3c(c2O)CCO3)nnc(N[C@@H]2CCCN(CCO)C2)c1=O [Example 1]
Lab note: record which item had the higher Papp, P or Q . # answer = label of selected item
P
(P: 25 ×10⁻⁶ cm/s, Q: 4.7 ×10⁻⁶ cm/s)

###

System: mouse P-gp
test-summary: Transcellular P-gp assay (mouse P-gp)
Format: in vitro ADME
run-parameters: LLC-PK1, first value of cell, transfected LLC-PK cells, read-out: Permeability
measured-property: Papp (×10⁻⁶ cm/s)

CCN1CCC[C@@H](Nc2nnc(-c3ccc4c(c3O)CCO4)n(C)c2=O)C1 [RE-A, reference compound] | 23.2

a = Cn1c(-c2ccc3c(c2O)CCO3)nnc(N[C@@H]2CCCN(CCO)C2)c1=O [Example 1]
b = Cn1c(-c2ccc3c(c2O)CCC3)nnc(N[C@@H]2CCCN(CCO)C2)c1=O [Example 2]
Return label of the item with the larger Papp. Candidates: a , b . Could you answer with the label of the item you picked?
b
(b: 17 ×10⁻⁶ cm/s, a: 4.7 ×10⁻⁶ cm/s)

Attribution: patent US20260109689A1
